Overview of reported cytotoxicity at 70.5 h across a group of compounds:
experiment: Human HepG2 cell viability assay in 384 well format; format: toxicity, cell-based; parameters: dose 125 nL, time 70.5 hour; concentration not given beside the values; conditions: HepG2 cells, read-out: Inhibition

>  <compound>
O=C(C(c1ccccc1)S(=O)(=O)c1ccccn1)N1CCCCC1 (configuration not stated)

>  <cytotoxicity at 70.5 h>
-7.07%

$$$$
>  <compound>
CC(C)(C)OC(=O)N1CCC(NC2CC2)CC1

>  <cytotoxicity at 70.5 h>
-7.1%

$$$$
>  <compound>
CCN1CCN(CC(C)(O)c2cccc(C(F)(F)F)c2)CC1 (configuration not stated)

>  <cytotoxicity at 70.5 h>
-10.9%

$$$$
>  <compound>
CC1CN(c2ccc(C#N)cn2)CCN1c1ccc2nncn2n1 (configuration not stated)

>  <cytotoxicity at 70.5 h>
-4.47%

$$$$
>  <compound>
CN(CCO)C[C@@H]1CN(C2CCN(c3ccccc3Cl)CC2)C[C@@H]1CO

>  <cytotoxicity at 70.5 h>
-10.1%

$$$$
>  <compound>
O=C(NC(CO)CO)c1coc(COc2cccc(F)c2)n1

>  <cytotoxicity at 70.5 h>
-13%

$$$$
>  <compound>
Oc1cc(CN2CCC(O)(Cn3ccnc3)CC2)nc2ccc(F)cc12

>  <cytotoxicity at 70.5 h>
-7.61%

$$$$
>  <compound>
Cc1n[nH]c(C)c1-c1cnc(CC2CCN(C)C2)cn1 (configuration not stated)

>  <cytotoxicity at 70.5 h>
-17.7%

$$$$
>  <compound>
Cc1nn(C(C)C)c(C)c1S(=O)(=O)Nc1ccc(C(=O)O)cc1

>  <cytotoxicity at 70.5 h>
-1.04%

$$$$
>  <compound>
CCc1cc(N(C)Cc2ccnc(C)c2)n2nc(C)c(C)c2n1

>  <cytotoxicity at 70.5 h>
40.9%

$$$$
>  <compound>
O=C(CN1C(=O)CCC1=O)NCC1(O)CCc2ccccc21 (configuration not stated)

>  <cytotoxicity at 70.5 h>
1.38%

$$$$
>  <compound>
CCC(C)N(Cc1cccnc1)C(=O)c1ncccc1O (configuration not stated)

>  <cytotoxicity at 70.5 h>
-8.41%

$$$$

====

assay: Human HepG2 cell viability assay in 384 well format; type: toxicity, cell-based; parameters: dose 125 nL, time 70.5 hour; concentration not given beside the values; settings: HepG2 cells, read-out: Inhibition

>  <compound>
O=C(NCc1cc[nH]n1)NCC(c1ccccc1)N1CCOCC1 (stereo unspecified)

>  <result.units>
%

>  <cytotoxicity at 70.5 h>
8.77

$$$$
>  <compound>
COCCNS(=O)(=O)c1cccc2c1CN(C(=O)c1ccccc1)CC2

>  <result.units>
%

>  <cytotoxicity at 70.5 h>
14.6

$$$$
>  <compound>
COc1ccc(NC(=O)NCC(O)c2ccccc2F)c(OC)c1 (stereo unspecified)

>  <result.units>
%

>  <cytotoxicity at 70.5 h>
19.2

$$$$
>  <compound>
O=C(N1CCC(O)(C(F)(F)F)C1)C1(c2cccc(Cl)c2)CC1 (stereo unspecified)

>  <result.units>
%

>  <cytotoxicity at 70.5 h>
-9.29

$$$$
>  <compound>
O=C(NC1CCS(=O)(=O)C1)c1ccccc1SCc1cscn1 (stereo unspecified)

>  <result.units>
%

>  <cytotoxicity at 70.5 h>
-9.17

$$$$
>  <compound>
Cc1cc2n(n1)[C@@H](C(F)(F)F)C[C@@H](C1CCN(C(=O)C3CC3)CC1)N2

>  <result.units>
%

>  <cytotoxicity at 70.5 h>
-2.95

$$$$
>  <compound>
Cc1nc(N2C[C@@H](CN3CCCN(C)CC3)[C@@H](CO)C2)c2ccsc2n1

>  <result.units>
%

>  <cytotoxicity at 70.5 h>
11.6

$$$$
>  <compound>
CCN(CCc1nc2cc(C)ccc2[nH]1)C(=O)[C@@H](N)CCSC

>  <result.units>
%

>  <cytotoxicity at 70.5 h>
-4.38

$$$$
>  <compound>
Cn1cc(-c2nc(C3CCN(S(C)(=O)=O)CC3)cc3c2ncn3C)cn1

>  <result.units>
%

>  <cytotoxicity at 70.5 h>
23.5

$$$$
>  <compound>
CN(C)CCn1ccc2cc(NC(=O)NCc3ncnn3C)ccc21

>  <result.units>
%

>  <cytotoxicity at 70.5 h>
-3.79

$$$$
>  <compound>
O=C(O)[C@@H]1CN(C2CCCC2)C[C@H]1C1CC1

>  <result.units>
%

>  <cytotoxicity at 70.5 h>
-8.02

$$$$
